ASSAYED SYSTEM: Avi-humanTEAD4 217-434 / Cy5 labeled humanYAP 60-100 (Homo sapiens (Human), UniProt Q15561)
Sequence (Q15561 217-434): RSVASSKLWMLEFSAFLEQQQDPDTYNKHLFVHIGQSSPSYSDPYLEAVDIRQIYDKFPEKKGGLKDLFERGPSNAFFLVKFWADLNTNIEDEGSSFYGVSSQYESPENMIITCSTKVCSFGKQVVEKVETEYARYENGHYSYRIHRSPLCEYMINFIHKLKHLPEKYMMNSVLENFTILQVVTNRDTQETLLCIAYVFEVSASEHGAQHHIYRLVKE
TEST DESCRIPTION: TR-FRET YAP-TEAD4 in-vitro biochemical assay
CONDITIONS: 1 nM Avi-humanTEAD4 217-434, 20 nM Cy5-humanYAP 60-100, 1 h room temperature
For each record, check the reported IC50: if it is below 10 nM write TRUE, else write FALSE.

{"COMPOUND": "CC(C)(O)C1CC(NC[C@@]2(c3ccccc3)Cc3c(cc(F)c(Cl)c3-c3c(C(N)=O)ccc(OC(F)F)c3F)O2)C1 (single isomer, unassigned) [Example 62b]", "CATEGORY": "TRUE"}
{"COMPOUND": "COc1ccc(C(N)=O)c(-c2c(Cl)ccc3c2[C@H](O)[C@@](CN[C@H]2CC[C@@H](O)CC2)(c2ccccn2)O3)c1F (relative stereo) [Example 95b]", "CATEGORY": "TRUE"}
{"COMPOUND": "C[C@@H](O)COc1ccc(C(N)=O)c(-c2c(Cl)ccc3c2C[C@@](CN)(c2ccccc2)O3)c1F (atropisomer, axis not shown)", "CATEGORY": "FALSE"}
{"COMPOUND": "CC(C)(O)C1CC(NC[C@@]2(c3ccccc3)Cc3c(cc(F)c(Cl)c3-c3c(C(N)=O)ccc(OC(F)F)c3F)O2)C1 (single isomer, unassigned) [Example 62a]", "CATEGORY": "FALSE"}
{"COMPOUND": "CCc1ccc(C(N)=O)c(-c2c(Cl)c(F)cc3c2C[C@@](CN[C@H]2CC[C@@](C)(O)CC2)(c2ccccc2)O3)c1F (atropisomer, axis not shown) [Example 68b]", "CATEGORY": "FALSE"}

---

Quick reference for IC50 among some compounds
Test system: MKN-45/Ubc-luc cells
TEST DESCRIPTION: Reporter gene specificity control (Ubc-luciferase), MKN-45
CONDITIONS: Homo sapiens, MKN-45, 24 h, read-out: Reporter gene assay MKN-45 IC50 [μM], MKN-45/Ubc-luc cells (YAP deleted, specificity control), 24 hours incubation

{"COMPOUND": "C[C@H]1c2c(cc(F)c(Cl)c2-c2c(C(N)=O)ccc(OCC(C)(C)O)c2F)O[C@]1(CN[C@H]1CC[C@](C)(O)CC1)c1ccccc1 (atropisomer, axis not shown)", "ASSAYED SYSTEM": "MKN-45/Ubc-luc cells", "IC50": "> 20 µM"}
{"COMPOUND": "COc1ccc(C(N)=O)c(-c2c(Cl)ccc3c2C[C@@](CN)(c2cscn2)O3)c1F (atropisomer, axis not shown)", "ASSAYED SYSTEM": "MKN-45/Ubc-luc cells", "IC50": "> 10 µM"}
{"COMPOUND": "CC(C)(O)C1CC(NC[C@@]2(c3ccccc3)Cc3c(cc(F)c(Cl)c3-c3c(C(N)=O)ccc(OC(F)F)c3F)O2)C1 (single isomer, unassigned) [Example 62a]", "ASSAYED SYSTEM": "MKN-45/Ubc-luc cells", "IC50": "> 10 µM"}
{"COMPOUND": "C[C@]1(O)CC[C@@H](NC[C@@]2(c3ccccc3)Cc3c(cc(F)c(Cl)c3-c3c(C(N)=O)ccc(-n4ccnc4)c3F)O2)CC1 (atropisomer, axis not shown) [Example 69b]", "ASSAYED SYSTEM": "MKN-45/Ubc-luc cells", "IC50": "7.8 µM"}
{"COMPOUND": "NC(=O)c1ccc(OCCO)c(F)c1-c1c(Cl)c(F)cc2c1C[C@](c1ccccc1)([C@@H]1CCCN1)N2 (atropisomer, axis not shown)", "ASSAYED SYSTEM": "MKN-45/Ubc-luc cells", "IC50": "> 8 µM"}
{"COMPOUND": "C[C@@H](O)COc1ccc(C(N)=O)c(-c2c(Cl)ccc3c2C[C@@](CN)(c2ccccc2)O3)c1F (atropisomer, axis not shown)", "ASSAYED SYSTEM": "MKN-45/Ubc-luc cells", "IC50": "> 10 µM"}
{"COMPOUND": "NC(=O)c1ccc(OC(F)F)c(F)c1-c1c(Cl)c(F)cc2c1C[C@](c1ccccc1)(C1CC(O)CN1)O2 (single isomer, unassigned)", "ASSAYED SYSTEM": "MKN-45/Ubc-luc cells", "IC50": "> 10 µM"}
{"COMPOUND": "CNC(=O)c1ccc(OCCO)c(F)c1-c1c(Cl)c(F)cc2c1C[C@](c1ccccc1)([C@@H]1CCCCN1)O2 (atropisomer, axis not shown)", "ASSAYED SYSTEM": "MKN-45/Ubc-luc cells", "IC50": "> 10 µM"}
{"COMPOUND": "C[C@H](O)COc1ccc(C#N)c(-c2c(Cl)c(F)cc3c2[C@H](C)[C@@](CN[C@H]2CC[C@](C)(O)CC2)(c2ccccc2)O3)c1F (atropisomer, axis not shown)", "ASSAYED SYSTEM": "MKN-45/Ubc-luc cells", "IC50": "> 10 µM"}
{"COMPOUND": "NC(=O)c1ccc(OCCO)c(F)c1-c1c(Cl)c(F)cc2c1C[C@@](CN[C@H]1C[C@@H](CO)C1)(c1ccccc1)O2 (atropisomer, axis not shown) [Example 64b]", "ASSAYED SYSTEM": "MKN-45/Ubc-luc cells", "IC50": "> 10 µM"}
{"COMPOUND": "CS(=O)(=O)[C@H]1CC[C@@H](NC[C@@]2(c3ccccc3)Cc3c(cc(F)c(Cl)c3-c3c(C(N)=O)ccc(OC(F)F)c3F)O2)CC1 [Example 54a]", "ASSAYED SYSTEM": "MKN-45/Ubc-luc cells", "IC50": "> 10 µM"}
{"COMPOUND": "CNC[C@]1(c2ccccc2)Oc2cc(F)c(Cl)c(-c3c(C(=O)NC)cnc(OCCO)c3F)c2[C@@H]1C (atropisomer, axis not shown)", "ASSAYED SYSTEM": "MKN-45/Ubc-luc cells", "IC50": "> 20 µM"}

This collection of values is drawn from patent US12083101B2.
